Source of measurements: PubChem BioAssay

Let's look at some compounds and their measured composite z-score.
Assay: small molecules captured by biotinylated probe aFGF10 – biochemical, small-molecule microarray, fluorescence 635/667, stem cell growth factor project, primary screen (AID 1071);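 note: score merges 667 nm spot intensity and signal to noise from triplicate slides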
Conditions: higher = more signal
Output spec: single numeric token, no unit.

// solved cases for composite z-score follow
>  <compound>
CC1CC/C=C\[C@H]2OC34C=CCN(Cc5ccccc5)C(=O)[C@H]3N(CCO)C(=O)[C@@H]4C2C(=O)O1 (some centres undefined)

>  <composite z-score>
1.1

$$$$
>  <compound>
C=CCC(OC(C)=O)[C@@H]1[C@@H](N(Cc2cc3ccccc3o2)C(=O)Cc2ccc(OC)cc2)c2cc(OCCCO)ccc2N1C(=O)c1ccc(-c2ccccc2)cc1 (some centres undefined)

>  <composite z-score>
-0.204

$$$$
>  <compound>
O=C(O)[C@]1(CCS(=O)(=O)c2ccccc2)N=C(c2ccc(OCCCO)cc2)O[C@@H]1c1ccccc1

>  <composite z-score>
-0.0267

$$$$

Qu. # lookup: composite z-score of C=CC[C@@]1(C(=O)NCC(O)CO)N=C(c2ccc(OCCCO)cc2)O[C@@H]1c1ccccc1 (some centres undefined)
Ans. 0.44

---

Assay: probe aXIP binding to arrayed compounds – biochemical, NeuroSMM set, 635/667 nm fluorescence, primary screen (AID 1119);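 note: probe is the protein aXip251-270 applied at 1 µg/mL to compound-printed slides; binding of probe to printed compounds measured as 667 nm fluorescence plus signal to noise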
Conditions: small-molecule microarray, higher = more signal, called active from +8 up or from −8 down
Would you mind labelling by composite Z-score? At or over 0.2 is T, under is F.

Please review the following examples before continuing.
>  <compound>
COC(=O)[C@@]1(Cc2ccccc2N=[N+]=[N-])N=C(c2ccc(OCCCO)cc2)O[C@H]1c1ccccc1

>  <answer-label>
F

$$$$
>  <compound>
COCCOC(=O)N1C(=O)[C@@]2(c3cc(C#CCCO)ccc31)[C@H](c1ccc(OCCO)cc1)N1[C@H](c3ccccc3)[C@H](c3ccccc3)OC(=O)[C@H]1[C@@H]2C(=O)N1CCc2cc(OC)c(OC)cc2C1

>  <answer-label>
T

$$$$
>  <compound>
C[N+](C)(C)CCCC[C@@H]1NC(=O)[C@@H]2C[C@H](C(=O)NCCCCCNC(=O)CS)[C@H](c3cccc(OCCO)c3)N2C1=O

>  <answer-label>
F

$$$$
>  <compound>
Cc1ccccc1C(O)C1C=CC2C(=O)N(Cc3ccccc3)C(=O)C2N1n1cnnc1 (stereo not drawn)

>  <answer-label>
T

$$$$
>  <compound>
C[N+](C)(C)CCCCCCNC(=O)[C@@H]1C[C@@H]2C(=O)NCC(=O)N2[C@@H]1c1cccc(OCCO)c1

>  <answer-label>
T

$$$$
>  <compound>
CCCNC(=O)[C@@]1(Sc2ccc(C)cc2)CC(=O)N(Cc2ccccc2)[C@@H]1c1ccc(CO)cc1I

>  <answer-label>
F

$$$$
>  <compound>
COCCCNC(=O)[C@]1(Cc2ccccc2)N=C(c2ccc(OCCCO)cc2)O[C@@H]1c1ccccc1N=[N+]=[N-]

>  <answer-label>
T

$$$$
>  <compound>
CCOC(=O)C[C@H]1[C@H](OC(=O)Cc2ccc3c(c2)OCO3)[C@@H](NC(=O)c2ccccc2)c2cc(OCCCO)ccc2N1C(=O)c1ccc2ccccc2n1

>  <answer-label>
T

$$$$

Qu. Check if composite Z-score >= 0.2 (inclusive). Item: C=CCC(OC(C)=O)[C@@H]1[C@@H](N(Cc2cccc3ccccc23)C(=O)Cc2ccc(F)cc2)c2cc(OCCCO)ccc2N1C(=O)Cc1ccc(OC)cc1 (stereo partly drawn)
Ans. F

Qu. What about this compound? "COc1ccccc1CN1C(=O)c2ccccc2[C@@H](C(=O)NCC(C)C)[C@@H]1c1ccc(CO)cc1"
Ans. F

Qu. What about this compound? C=CC[C@]1(C(=O)NCC(O)CO)N=C(c2ccc(OCCCO)cc2)O[C@H]1c1ccccc1N=[N+]=[N-] (stereo partly drawn)
Ans. F

Qu. What about this compound? "CCCCC=C[C@@H](NC(=O)CCc1ccccc1)c1ccccc1"
Ans. T

Qu. What about this compound? "C[C@H]1ON(c2ccccc2)[C@@H](c2ccccc2)[C@@H]1C(=O)N1C(=O)OC[C@@H]1c1ccccc1"
Ans. T

Qu. What about this compound? "C=CC[C@]1(C(=O)N2CCOCC2)N=C(c2ccc(OCCCO)cc2)O[C@H]1c1ccccc1CN=[N+]=[N-]"
Ans. F

Qu. What about this compound? "COc1ccc([Si](C)(C)[C@@H]2[C@@H](CC(=O)N(CCO)Cc3ccccc3)O[C@]3(C(=O)N(Cc4ccc(N5CCOC5=O)cc4)c4ccccc43)[C@H]2C)cc1"
Ans. T

Qu. What about this compound? C=CCC(OC(C)=O)[C@@H]1[C@@H](N(Cc2ccc(-c3ccccc3)cc2)C(=O)c2cccc3ccccc23)c2cc(OCCCO)ccc2N1C(=O)c1ccc2ccccc2n1 (stereo partly drawn)
Ans. F

Qu. What about this compound? CN1C(=O)C2C=CC(C(O)COCc3ccccc3)N(Nc3ccccc3)C2C1=O (stereo not drawn)
Ans. F

Qu. What about this compound? COc1cc(C(O)C2C=CC3C(=O)N(C)C(=O)C3N2NC(=O)OC(C)(C)C)cc(OC)c1OC (stereo not drawn)
Ans. T

Qu. What about this compound? O=C1NC(=O)C2C1C=CC(C(O)c1ccc(-c3ccccc3)s1)N2Nc1ccccn1 (stereo not drawn)
Ans. F

Qu. What about this compound? "CO[C@H]1O[C@H](CO)[C@@H](OC(=O)Nc2ccc(C(F)(F)F)cc2)[C@H](OC(=O)Nc2ccccc2)[C@H]1OC(=O)Nc1ccccc1"
Ans. F

Qu. What about this compound? "COCCOC(=O)N1C(=O)[C@@]2(c3cc(C#Cc4ccc(OC)cc4)ccc31)[C@H](c1ccc(OCCO)cc1)N1[C@H](c3ccccc3)[C@H](c3ccccc3)OC(=O)[C@H]1[C@@H]2C(N)=O"
Ans. T

Qu. What about this compound? "C#CCOC(=O)N[C@H](C=CCCCC)c1ccccc1"
Ans. T

Qu. What about this compound? "COc1ccc(C(=O)Nc2ccc3c(c2)[C@]2(O[C@@H](CCO)[C@H]([Si](C)(C)c4ccc(OC)cc4)[C@H]2C)C(=O)N3Cc2ccccc2)cc1"
Ans. F

---

Assay: compound effects on multiple myeloma cell viability – MM1S, calcein-AM fluorescence, 48 h, basal, profiling panel (AID 1165);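 note: viability of MM1S multiple myeloma cells under basal unstimulated conditions; test concentration not given here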
Details: higher = more signal
Classes based on z-score: low = under -0.6, mid = from -0.6 up to -0.07, high = -0.07 and over

Please review the following examples before continuing.
>  <compound>
CCN(CC)c1ccc(N2CC=CC34O[C@@H]5/C=C\CCCOC(=O)C5[C@H]3C(=O)N(CCCCCO)[C@@H]4C2=O)cc1 (stereo partly drawn)

>  <answer-label>
mid

$$$$
>  <compound>
O=C1N(Cc2ccccc2)c2ccccc2[C@H]2OC(c3ccc(OCCCO)cc3)=N[C@@]12CCS(=O)(=O)c1ccccc1

>  <answer-label>
low

$$$$
>  <compound>
COCCCNC(=O)[C@]1(CCS(=O)(=O)c2ccccc2)N=C(c2ccc(OCCCO)cc2)O[C@@H]1c1ccccc1

>  <answer-label>
mid

$$$$
>  <compound>
COCCOC(=O)N1C(=O)[C@@]2(c3cc(C#CCCO)ccc31)[C@H](c1ccc(OCCO)cc1)N1[C@H](c3ccccc3)[C@H](c3ccccc3)OC(=O)[C@H]1[C@@H]2C(=O)N1CCc2cc(OC)c(OC)cc2C1

>  <answer-label>
high

$$$$

Qu. Record "COCCCNC(=O)[C@@H]1c2ccccc2C(=O)N(c2ccc(C)cn2)[C@H]1c1ccc(CO)cc1" — which class?
Ans. low

---

Experiment: JC-1 mitochondrial signal, unstimulated MM1S myeloma – cell-based, JC-1 fluorescence, 24 h, 100 nL compound, profiling panel (AID 1170); note: test concentration not given here
Settings: MM1S mitochondrial potential, higher = more signal
Would you mind labelling by z-score? At or over -0.2 is class 1, under is class 0.

Please review the following examples before continuing.
>  <compound>
NC(=O)[C@H]1[C@@H]2C(=O)O[C@@H](c3ccccc3)[C@@H](c3ccccc3)N2[C@@H](c2ccc(O)cc2)[C@]12C(=O)Nc1ccc(C#CC3(O)CCCCCC3)cc12

>  <answer-label>
class 1

$$$$
>  <compound>
CC(C)c1ccc(NN2C(C(O)c3cccs3)C=CC3C(=O)N(c4ccccc4)C(=O)C32)cc1 (stereo unspecified)

>  <answer-label>
class 1

$$$$
>  <compound>
O=C1O[C@H](c2ccccc2)[C@H](c2ccccc2)N2[C@H]1[C@@H](C(=O)N1CCN(c3ncccn3)CC1)[C@]1(C(=O)Nc3ccc(C#CCCO)cc31)[C@H]2c1ccc(OCCO)cc1

>  <answer-label>
class 0

$$$$

Qu. Check if z-score >= -0.2 (inclusive). Item: "O=C1C[C@@](C(=O)O)(c2ccc([N+](=O)[O-])cc2)[C@@H](c2ccc(CO)cc2)N1CC12CC3CC(CC(C3)C1)C2"
Ans. class 0

Qu. What about this compound? "CN(C)CCCC[C@@H]1NC(=O)[C@H]2C[C@@H](C(=O)NCCCCCCNC(=O)CS)[C@@H](c3ccc(O)cc3)N2C1=O"
Ans. class 1

Qu. What about this compound? "COCCOC(=O)N1C(=O)[C@@]2(c3cc(C#CCCO)ccc31)[C@H](c1ccc(OCCO)cc1)N1[C@H](c3ccccc3)[C@H](c3ccccc3)OC(=O)[C@H]1[C@@H]2C(=O)N1CCc2cc(OC)c(OC)cc2C1"
Ans. class 0
